assay: blockers of RIG-like receptor reporter activation – cell-based, Sendai virus stimulus, luciferase, 10K MLSCN set, TLR/RLR signaling modifier project, primary screen (AID 602276); conditions: HEK293 RL24 IRF3 luciferase reporter, at 10 µM, stronger effect = higher value;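 note: firefly luciferase from ISG56 promoter only with Renilla not read in this screen; 0% = Sendai virus plus DMSO and 100% = medium plus DMSO without virus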
Activity calls are given as the source filed them.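 Rule for the calls: active = inhibition at or above 50% at 10 µM; inactive = inhibition below 50%.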
readout-name: inhibition

compound: CCn1nnnc1SCC(=O)Nc1nc(-c2cccs2)cs1
inhibition: 15.8% (inactive)

compound: O=C1C2CCCN2C(c2ccccc2)N1c1ccc(Cl)cc1 (stereo unspecified)
inhibition: 31.4% (inactive)

compound: CC(Sc1n[nH]c(=O)[nH]c1=O)C(=O)OCc1ccccc1 (stereo unspecified)
inhibition: 14.4% (inactive)

compound: CCOC(=O)c1c(NC(=O)OC)sc2c1CCC2
inhibition: 7.95% (inactive)

compound: Cc1ccccc1-c1nc(CN2CCC(C(=O)NCCCN3CCCC3)CC2)c(C)o1
inhibition: -136% (inactive)

Data request, read-out inhibition, for O=C(O)C1CC=CCC1C(=O)Nc1cccc(F)c1 (stereo unspecified)
10.2% (inactive)

Which value of inhibition has been reported for Cc1ccc(S(=O)(=O)N2CCCC(c3nnc4n3-c3ccccc3SC4)C2)cc1 (stereo unspecified) in the records?
16.2% (inactive)

====

test: blockers of RIG-like receptor reporter activation – cell-based, Sendai virus stimulus, luciferase, 10K MLSCN set, TLR/RLR signaling modifier project, primary screen (AID 602276); details: HEK293 RL24 IRF3 luciferase reporter, at 10 µM, stronger effect = higher value;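 note: firefly luciferase from ISG56 promoter only with Renilla not read in this screen; 0% = Sendai virus plus DMSO and 100% = medium plus DMSO without virus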
Here the recorded inhibition is given for each entry.
I only need the number, in %, no unit after it.

Consider the following illustrative entries.
compound: COc1ccc(NC(=O)c2ccco2)cc1NC(=O)c1cccs1
inhibition, %: -10.6

compound: O=C(c1cccnc1)N1CCN(C(=O)c2ccccc2F)CC1
inhibition, %: -1.4

compound: CC1CCCC(C)N1CCNC(=O)C1CCN(S(=O)(=O)N2CCCCC2)CC1 (centres undefined)
inhibition, %: -6.08

What inhibition value was documented for this compound, COCCOC(=O)C1=C(C)OC(N)=C(C#N)C1c1ccc2c(c1)OCO2 (centres undefined) ?
5.43

I'd like to know its inhibition. The compound in question is O=C(NCc1ccco1)c1c2c(nc3ccccc13)CCC2
5.99

====

test: endothelial E-selectin expression blockers – imaging, HUVEC, immunofluorescence, MLSMR starter and 10KST1 sets, primary screen (AID 487); settings: HUVEC TNFalpha-induced E-selectin immunofluorescence imaging, at 2 µM;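 note: signal is fraction of cell area covered by stained E-selectin grains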
The source made the active and inactive calls.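 Rule for the calls: active = visually confirmed hit in the image check and inhibition above 20%; inconclusive = visually confirmed hit but inhibition not above 20%; inactive = no visual hit in the image check.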
Hi there, use one of these labels in your reply, thanks! Y for active, N for inactive

Solved entries (count: 4):
compound: CC(OC(=O)c1ccco1)C(=O)NCc1cccs1 (stereo not drawn)
label-value: N
--
compound: C=CCSc1nnc(-c2cccnc2)o1
label-value: N
--
compound: Cc1c(NS(=O)(=O)c2ccc3c(c2)n(C)c(=O)n3C)c(=O)n(-c2ccccc2)n1C
label-value: N
--
compound: NC(=O)c1cc(-c2ccccc2)nc(N2CCOCC2)n1
label-value: N

Now consider a different compound.
Hi, do you know how CC1CN(c2c3c(nc4ncnn24)CCCC3)CC(C)O1 (stereo not drawn) came out in this test?
N

====

test: inhibitors of TNFa-induced NFkB p65 translocation, primary screen, imaging, HUVEC, MLSMR starter and 10KST1 sets (AID 438); details: HUVEC TNFa-induced p65 nuclear translocation; measured here: nuclei count (cytotoxicity indicator), at 2.08 µM;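 note: compound added about 3h40 before a 20 min TNFalpha stimulation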
Rule: cell count of 600 or more gives True; anything lower gives False.

Look over these answered cases.
compound: CCC1(C)Cc2c(sc3nc(SCC(=O)O)[nH]c(=O)c23)CO1 (stereo not given)
label-value: False

compound: COc1ccccc1N(C)S(=O)(=O)c1ccc(C(=O)NC2=NCCS2)cc1
label-value: False

compound: COc1cc2c(cc1OC)C(/C(C#N)=N\O)=NC(C)(C)C2
label-value: True

Would you kindly look at the next entry?
Quick check: does CCn1c(SCC(=O)Nc2ccccc2N2CCCCC2)nc2c1c(=O)n(C)c(=O)n2C have cell count greater than or equal to 600?
False

====

assay: inhibitors of TNFa-induced NFkB p65 translocation, primary screen, imaging, HUVEC, MLSMR starter and 10KST1 sets (AID 438); conditions: HUVEC TNFa-induced p65 nuclear translocation; at 2 µM, stronger effect = higher value, 0% TNFa-plus-vehicle, 100% no-TNFa wells;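 note: compound added about 3h40 before a 20 min TNFalpha stimulation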;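 for inhibition: signal is the nuclear over cytoplasmic p65 intensity ratio per well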
readout-name: inhibition (%)
The reply should contain only the number, in %.

Reference set, count: 5
molecule: CNC(=O)OC(C)CNS(=O)(=O)c1ccc(C)cc1 (stereo unspecified)
reading-unit: %
quantitative-readout: 9.8
--
molecule: CSc1nnc(-c2nnc(SC)n2-c2ccccc2)n1-c1ccccc1
reading-unit: %
quantitative-readout: -9.3
--
molecule: Cc1cnc(NC(=O)CSc2nc3ccccc3c(=O)[nH]2)s1
reading-unit: %
quantitative-readout: 8.9
--
molecule: CCOC(=O)c1sc2nc(NC(=O)COc3ccccc3)sc2c1C
reading-unit: %
quantitative-readout: -6.9
--
molecule: Cc1[nH]nc(N=CC2=C(O)CC(C)(C)CC2=O)c1-c1ccc(Cl)cc1
reading-unit: %
quantitative-readout: 10.1

Endpoint output: inhibition of C=CCn1c(COc2ccc(CC)cc2)nnc1SC/C(O)=C(\C#N)c1nc2ccccc2[nH]1 . Value?
-4.3

Quick check: inhibition of O=C(NCCCN1CCN(CCCNC(=O)c2ccc(F)cc2)CC1)c1ccc(F)cc1 ?
-1.1

====

assay: TLR3 IRF3 reporter activation blockers – cell-based, poly I:C stimulus, luciferase, 10K MLSCN set, primary screen (AID 602277); settings: HEK293-TLR3 RL24 IRF3 luciferase reporter, at 10 µM, stronger effect = higher value
Calls of active or inactive are those of the source.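 How the source made its calls: active means inhibition of the reporter signal at or above 50%; inactive means inhibition below 50%.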
readout-name: inhibition

compound: OCCn1c(CSc2nnc(-c3ccco3)n2-c2ccccc2)nc2ccc(Cl)cc21
result: 24.7% (inactive)
//
compound: Cc1nc(SCC(=O)NCc2ccco2)c2c(C)c(C)sc2n1
result: 17.9% (inactive)
//
compound: CCn1c(SCC(=O)Nc2ccc3c(c2)OCO3)nnc1-c1cnccn1
result: 16.7% (inactive)
//
compound: CC(OC1=CC(=O)CCC1)C(=O)c1ccccc1 (stereo not drawn)
result: 18.3% (inactive)
//
compound: Nc1nc(CSCc2ccccc2)nc(N2CCOCC2)n1
result: -81.5% (inactive)
//
compound: O=c1cc(CN2CCN(c3ccc(F)cc3)CC2)nc2sccn12
result: 0.252% (inactive)

Which inhibition reading was recorded for the compound CCCN1CCN(C(=O)c2cn(CC(C)C)c(=O)c3cc(OC)c(OC)cc23)CC1 ?
20.6% (inactive)

I would be grateful if you could share the reported inhibition for CCOC(=O)N1CCN(C(=O)C2CC(=O)N(Cc3ccc(OC)cc3)C2)CC1 (stereo not drawn) .
18.5% (inactive)

Given the entry CCOC(=O)N1CCN(C(=O)COc2cc(=O)n(C)c3ccccc23)CC1 , report its measured inhibition.
-23.1% (inactive)

====

Each entry below lists one item and its recorded inhibition value.
experiment: inhibitors of TNFa-induced NFkB p65 translocation, primary screen, imaging, HUVEC, MLSMR starter and 10KST1 sets (AID 438); conditions: HUVEC TNFa-induced p65 nuclear translocation; at 2 µM, stronger effect = higher value, 0% TNFa-plus-vehicle, 100% no-TNFa wells;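 note: compound added about 3h40 before a 20 min TNFalpha stimulation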;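 for inhibition: signal is the nuclear over cytoplasmic p65 intensity ratio per well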
Write down the numeric answer in % and omit the unit.

compound: CC(C)Cn1c2c(c(O)c(C(=O)Nc3ncccc3O)c1=O)CCCC2
quantitative-readout: -5.9

Consider the compound CCOC(=O)C1CCN(C(=O)C2CCN(S(=O)(=O)c3cc(Cl)ccc3Cl)CC2)CC1 and give its measured inhibition.
-4.9

Form field: reported inhibition of Cn1c(SCc2ccccc2)nnc1C1CCCNC1 (stereo not drawn)
-2.3

# get_value(readout='inhibition', item= Cc1ccc(S(=O)(=O)C2(C(=O)NC3CCCC3)CC2)cc1 )
-4.2

Given the entry CN(C)C(=O)CN(C)S(=O)(=O)c1ccc(Cl)cc1 , report its measured inhibition.
8.7

What value of inhibition has been reported for the following compound? Cc1cc(C)c(OCC(=O)Nc2cccc(O)c2)cc1C
-14.9

====

Catalogue of inhibition values
assay: blockers of RIG-like receptor reporter activation – cell-based, Sendai virus stimulus, luciferase, 10K MLSCN set, TLR/RLR signaling modifier project, primary screen (AID 602276); conditions: HEK293 RL24 IRF3 luciferase reporter, at 10 µM, stronger effect = higher value;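 note: firefly luciferase from ISG56 promoter only with Renilla not read in this screen; 0% = Sendai virus plus DMSO and 100% = medium plus DMSO without virus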
Kindly answer with a numeric value in %, unit omitted.

Field: example entries. Status: answers known.
molecule: COc1ccc(OC)c(Nc2cc(-c3ccccc3)nc(N)n2)c1
inhibition [%]: 46.6
--
molecule: c1ccc2c(SCc3cn4cccnc4n3)ncnc2c1
inhibition [%]: 3.66
--
molecule: CC1=C(C)C(=O)NC(Nc2nc(C)c3cc(C)cc(C)c3n2)N1 (configuration not stated)
inhibition [%]: 7.09
--
molecule: COCCNC(=O)C(c1ccc(C)o1)N(Cc1cccs1)C(=O)c1snc(C(N)=O)c1N (configuration not stated)
inhibition [%]: -13.8

Next molecule, inhibition to be filled in.
If you can, please state the reported inhibition value of CCn1c(SCC(=O)N2c3ccccc3CCc3ccccc32)nc2c1c(=O)n(C)c(=O)n2C .
5.5
